- assay_summary: Luminescence Cell-Based Dose Retest to Confirm Inhibitors of Cancer Stem Cells. [Related pubchem assays (depositor defined):AID2717, AID2721]
- Type: functional
- stated_conditions: Homo sapiens
The source made the active and inactive calls.
// reported AC50 per item
quantity_kind: AC50

[[record]]
compound = "NC1=NC[C@@H](CC2CCCCC2)N1CCc1cc(C(F)(F)F)cc(C(F)(F)F)c1"
quantity_kind = "AC50"
reported = "3.19 µM (active)"

[[record]]
compound = "O=C1c2cccc3cccc(c23)C(=O)N1CCN1CCN(CC(O)COc2ccc3ccccc3c2)CC1 (stereo unspecified)"
quantity_kind = "AC50"
reported = "5.08 µM (active)"

[[record]]
compound = "COC(=O)c1ccccc1NCc1cc(=O)oc2cc(O)c(O)cc12"
quantity_kind = "AC50"
reported = "6.97 µM (active)"

[[record]]
compound = "FC(F)(F)c1cc(CCN2CCNC[C@@H]2Cc2ccccc2)cc(C(F)(F)F)c1"
quantity_kind = "AC50"
reported = "13.3 µM (active)"

[[record]]
compound = "Cc1cccc(C(=O)Nc2ccc(C(=O)Nc3ccc(O)cc3)cc2)c1"
quantity_kind = "AC50"
reported = "2.09 µM (active)"

[[record]]
compound = "CCCn1c(SCC#N)nc2c(c1=O)C1(CCCC1)Cc1ccccc1-2"
quantity_kind = "AC50"
reported = "1.92 µM (active)"


---

- measured_target: DNA dC->dU-editing enzyme APOBEC-3G (Homo sapiens, UniProt Q9HC16)
- Sequence (Q9HC16 whole entry): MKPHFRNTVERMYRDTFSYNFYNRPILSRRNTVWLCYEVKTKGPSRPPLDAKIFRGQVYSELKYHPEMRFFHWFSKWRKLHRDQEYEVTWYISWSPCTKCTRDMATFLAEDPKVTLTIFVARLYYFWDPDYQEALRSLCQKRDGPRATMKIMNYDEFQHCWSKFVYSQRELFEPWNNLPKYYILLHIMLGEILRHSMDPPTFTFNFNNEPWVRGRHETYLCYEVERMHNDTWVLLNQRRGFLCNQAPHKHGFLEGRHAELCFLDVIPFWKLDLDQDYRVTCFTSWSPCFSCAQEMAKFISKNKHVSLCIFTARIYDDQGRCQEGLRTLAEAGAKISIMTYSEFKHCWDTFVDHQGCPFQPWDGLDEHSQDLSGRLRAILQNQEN
- assay_summary: Dose Response confirmation of small molecule APOBEC3G DNA Deaminase Inhibitors via a fluorescence-based single-stranded DNA deaminase assay. [Related pubchem assays (depositor defined):AID493012, AID493028]
- Type: functional
Calls of active or inactive are those of the source.
quantity_kind: IC50

[[record]]
molecule = "N#CC1=C2SCN(c3ccccc3)CN2C(=O)CC1c1c(Cl)cccc1Cl (stereo unspecified)"
quantity_kind = "IC50"
reported = "4.44 µM (active)"

[[record]]
molecule = "Cc1cc(C)c2c(=O)n(CC(=O)Nc3ccc(Cl)cc3)sc2n1"
quantity_kind = "IC50"
reported = "3.35 µM (active)"

[[record]]
molecule = "COc1ccc(OCc2n[nH]c(=S)n2N)cc1"
quantity_kind = "IC50"
reported = "7.1 µM (active)"

[[record]]
molecule = "Cn1cccc1/C=N/n1c(S)nnc1-c1ccco1"
quantity_kind = "IC50"
reported = "3.92 µM (active)"

[[record]]
molecule = "Sc1nnc(-c2ccccc2)n1/N=C/c1cccs1"
quantity_kind = "IC50"
reported = "1.81 µM (active)"

[[record]]
molecule = "COc1cccc(/C=N/n2c(S)nnc2-c2cc(C)[nH]n2)c1OC"
quantity_kind = "IC50"
reported = "3.89 µM (active)"


---

- assay_summary: Trypanosoma cruzi growth suppression in host cells – NIH3T3 host cells, beta-gal luminescence, confirmation (AID 2044);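 note: intracellular parasites grown in NIH/3T3 mouse fibroblasts as host cells; luminescent beta-galactosidase reporter signal from transgenic T. cruzi replicating inside host cells; inhibitors lower the luminescence signal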
- Assay type: functional, cell-based
Activity calls are given as the source filed them.
Recorded EC50 by entry
quantity_kind: EC50

[[record]]
molecule = "CC1=C(C#N)C(c2cccnc2)C2=C(O)CC(c3ccc(Cl)cc3)CC2=N1 (stereo not given)"
quantity_kind = "EC50"
reported = "2260 nM (active)"

[[record]]
molecule = "Cc1ccc2[nH]c(C)c(/C=N/Nc3nc4ccccc4s3)c2c1"
quantity_kind = "EC50"
reported = "2240 nM (active)"

[[record]]
molecule = "CC(C)(C)n1nc(-c2ccc(F)cc2)c2c(N)ncnc21"
quantity_kind = "EC50"
reported = "316 nM (active)"

[[record]]
molecule = "O=C1C=CC(=O)N1CCNc1ncc(C(F)(F)F)cc1Cl"
quantity_kind = "EC50"
reported = "2780 nM (active)"

[[record]]
molecule = "O=C(Nc1ccc(S(=O)(=O)NC2=NCCCCC2)cc1)c1ccc([N+](=O)[O-])s1"
quantity_kind = "EC50"
reported = "201 nM (active)"

[[record]]
molecule = "Cc1cc(C)nc(N=C(NCCc2c[nH]c3ccccc23)NC(=O)Nc2ccc(Cl)c(Cl)c2)n1"
quantity_kind = "EC50"
reported = "1620 nM (active)"

[[record]]
molecule = "COc1ccc(C2Nc3ccc4ccccc4c3-c3c2c(=O)oc2ccccc32)cc1 (stereo not given)"
quantity_kind = "EC50"
reported = "204 nM (active)"

[[record]]
molecule = "CN(C)CCN(C(=O)c1ccc(S(=O)(=O)N(C)C)cc1)c1nc2cc3c(cc2s1)OCCO3"
quantity_kind = "EC50"
reported = "< 100 nM (active)"

[[record]]
molecule = "CN1CCC(OC(=O)c2ccc(Cl)cc2Cl)CC1"
quantity_kind = "EC50"
reported = "127 nM (active)"

[[record]]
molecule = "OC1CCN(Cc2cccc(Oc3ccccc3)c2)CC1"
quantity_kind = "EC50"
reported = "< 100 nM (active)"

[[record]]
molecule = "O=C(CCS(=O)(=O)c1ccccc1)N(CCCN1CCOCC1)c1nc2ccc(F)cc2s1"
quantity_kind = "EC50"
reported = "2060 nM (active)"

[[record]]
molecule = "CCCOc1ccc(CNCCCOCC)cc1OC"
quantity_kind = "EC50"
reported = "344 nM (active)"

[[record]]
molecule = "O=C1CCCN1CCCNc1c([N+](=O)[O-])nn(-c2ccc(Cl)cc2)[n+]1[O-]"
quantity_kind = "EC50"
reported = "562 nM (active)"

[[record]]
molecule = "N#Cc1ccccc1Cn1cc(/C=N/Nc2ccc([N+](=O)[O-])cn2)c2ccccc21"
quantity_kind = "EC50"
reported = "1940 nM (active)"

[[record]]
molecule = "COc1ccc(/C=C/c2ccncc2)cc1"
quantity_kind = "EC50"
reported = "529 nM (active)"

